B1: glmS ribozyme (parent)
chain: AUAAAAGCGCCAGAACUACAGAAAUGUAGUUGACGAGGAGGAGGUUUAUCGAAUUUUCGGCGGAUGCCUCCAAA

variants of: B1; assay: self-cleavage kobs at 10000 uM GlcN6P; higher = faster cleavage; RNA array; conditions: with glucosamine-6-phosphate
This sample holds only a part of the variants without activity.
Decide by self-cleavage kobs at 10000 uM GlcN6P: equal to or exceeding 0.0001 s⁻¹ means fulfilled, less means not fulfilled.

Prompt: Does the variant A14G C34U have recorded self-cleavage kobs at 10000 uM GlcN6P that is 0.0001 s⁻¹ or more?
Completion: not fulfilled

Prompt: Does the variant A15U A48U have recorded self-cleavage kobs at 10000 uM GlcN6P that is 0.0001 s⁻¹ or more?
Completion: not fulfilled

Prompt: Does the variant A12G C71A have recorded self-cleavage kobs at 10000 uM GlcN6P that is 0.0001 s⁻¹ or more?
Completion: fulfilled

Prompt: Does the variant C67A C71G have recorded self-cleavage kobs at 10000 uM GlcN6P that is 0.0001 s⁻¹ or more?
Completion: not fulfilled

Prompt: Does the variant G66C C70G have recorded self-cleavage kobs at 10000 uM GlcN6P that is 0.0001 s⁻¹ or more?
Completion: fulfilled

Prompt: Does the variant G38C U55G have recorded self-cleavage kobs at 10000 uM GlcN6P that is 0.0001 s⁻¹ or more?
Completion: not fulfilled

Prompt: Does the variant G44U C71U have recorded self-cleavage kobs at 10000 uM GlcN6P that is 0.0001 s⁻¹ or more?
Completion: not fulfilled

Prompt: Does the variant C16U G29U A53U have recorded self-cleavage kobs at 10000 uM GlcN6P that is 0.0001 s⁻¹ or more?
Completion: fulfilled

Prompt: Does the variant C16A U30C C61G have recorded self-cleavage kobs at 10000 uM GlcN6P that is 0.0001 s⁻¹ or more?
Completion: not fulfilled

Prompt: Does the variant U46C A48U have recorded self-cleavage kobs at 10000 uM GlcN6P that is 0.0001 s⁻¹ or more?
Completion: not fulfilled

Prompt: Does the variant A14G G41C have recorded self-cleavage kobs at 10000 uM GlcN6P that is 0.0001 s⁻¹ or more?
Completion: fulfilled

Prompt: Does the variant A12G A36U A48C A53C G66A C70G have recorded self-cleavage kobs at 10000 uM GlcN6P that is 0.0001 s⁻¹ or more?
Completion: not fulfilled

Prompt: Does the variant C11G C34A have recorded self-cleavage kobs at 10000 uM GlcN6P that is 0.0001 s⁻¹ or more?
Completion: not fulfilled

Prompt: Does the variant U45G U69G have recorded self-cleavage kobs at 10000 uM GlcN6P that is 0.0001 s⁻¹ or more?
Completion: fulfilled

Prompt: Does the variant U30C G59C have recorded self-cleavage kobs at 10000 uM GlcN6P that is 0.0001 s⁻¹ or more?
Completion: not fulfilled

Prompt: Does the variant C10A A12C U56A have recorded self-cleavage kobs at 10000 uM GlcN6P that is 0.0001 s⁻¹ or more?
Completion: fulfilled
